# tested-on: secNluc-D3R (UniProt P35462+Q9GV45, A31E/A60N/A81I/F95D/I117V/K70R/L54V/L99Q/M102K/N193R/P142E/Q151K/Q38R/Q45L/V71I/Y165I)
# Sequence (Q9GV45+P35462 fused with the stated changes): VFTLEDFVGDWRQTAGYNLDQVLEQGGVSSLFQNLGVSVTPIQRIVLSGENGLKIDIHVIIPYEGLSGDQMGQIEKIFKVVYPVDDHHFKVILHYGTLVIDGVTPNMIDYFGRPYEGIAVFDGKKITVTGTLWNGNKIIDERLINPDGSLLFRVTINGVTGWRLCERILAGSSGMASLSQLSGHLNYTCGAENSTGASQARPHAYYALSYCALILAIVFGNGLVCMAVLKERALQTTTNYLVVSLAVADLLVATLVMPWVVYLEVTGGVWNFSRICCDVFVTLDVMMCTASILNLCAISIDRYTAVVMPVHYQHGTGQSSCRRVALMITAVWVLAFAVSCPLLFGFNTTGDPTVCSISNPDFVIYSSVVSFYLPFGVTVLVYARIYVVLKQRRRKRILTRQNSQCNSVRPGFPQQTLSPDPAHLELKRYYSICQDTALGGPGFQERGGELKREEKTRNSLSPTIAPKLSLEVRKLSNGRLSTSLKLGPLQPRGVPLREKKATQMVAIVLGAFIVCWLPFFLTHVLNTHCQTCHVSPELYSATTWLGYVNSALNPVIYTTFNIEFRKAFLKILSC
# assay-method-text: Live-cell NanoBRET saturation binding, HEK293T cells
# recorded-conditions: live HEK293T cells expressing secNluc-D3R; KD ± SEM; read-out: KD NanoBRET saturation
# Experimental: Figure 5 NanoBRET saturation curves for the fluorescent ligands 10a-c. […] The netBRET signal was calculated as the difference between total BRET and the signal obtained in the absence of a fluorescent ligand. For whole cell NanoBRET saturation assays, HEK293T cells were transfected with secNluc-D3R employing Mirus TransIT-293 (3:1 reagent to DNA ratio). […] Total, non-specific and specific binding were analyzed employing the algorithms for one-site saturation binding implemented in PRISM6.0 or 8.0.
pKd: −log10 of the molar value.

>  <compound>
CCCN(CCCCc1cn(-c2ccc(CNC(=O)c3ccc(-c4c5ccc(=NCC(F)(F)F)cc-5oc5cc(NCC(F)(F)F)ccc45)c(C(=O)O)c3)cc2)nn1)C1Cc2ccccc2C1 [10a]

>  <pKd>
9.14

$$$$

----------
Reported values of pKd for individual entries
# tested-on: secNluc-D3R (UniProt P35462+Q9GV45, A31E/A60N/A81I/F95D/I117V/K70R/L54V/L99Q/M102K/N193R/P142E/Q151K/Q38R/Q45L/V71I/Y165I)
# assay-method-text: Membrane-based NanoBRET saturation binding
# recorded-conditions: membranes from HEK293T cells expressing secNluc-D3R; KD ± SEM
# Experimental: . After addition of furimazine (1:5,000, final volume 35 µL), and 5 min incubation at room temperature in the dark, BRET readings were obtained using a CLARIOstar plate reader equipped with a 475/30 nm donor together with a 535/30 nm (for 10a) or 620/30 nm (for 10b) acceptor emission filter. […]. Kinetic assays were monitored at room temperature and minimal possible cycle time of the CLARIOstar was used for each measurement. […] calculated as the difference between total and non- specific binding . […]
pKd: −log10 of the molar value.
quantity: pKd

>  <compound>
CCCN(CCCCc1cn(-c2ccc(C(=O)NCCCNC(=O)Cc3ccc4c(c3)C(C)(C)C3=C5C=C6C7=[N+](CCC6OC5CCN34)c3ccc(S(=O)(=O)[O-])cc3C7(C)C)cc2)nn1)C1Cc2ccccc2C1 (centres unmarked) [10b]

>  <experimental-result>
7.95

$$$$
>  <compound>
CCCN(CCCCc1cn(-c2ccc(CNC(=O)c3ccc(-c4c5ccc(=NCC(F)(F)F)cc-5oc5cc(NCC(F)(F)F)ccc45)c(C(=O)O)c3)cc2)nn1)C1Cc2ccccc2C1 [10a]

>  <experimental-result>
9.05

$$$$
